Can you tell me TGI for the items I'm about to list?
Tested on: SNB-19 CNS
Assay: NCI tumour cell line growth inhibition, 48 h

INPUT: Using the record for `CSc1nc(=O)c2nc(-c3cccs3)c(-c3cccs3)nc2n1C` , report its TGI.
OUTPUT: > 100 µM

INPUT: Here is the next compound: `O=C(Nc1cccc(C(F)(F)F)c1)Oc1ccc(Cl)c2cccnc12`
OUTPUT: > 32.8 µM

INPUT: Here is the next compound: `N#CC1=C(N)NC(=O)NC12Nc1ccccc1N2`
OUTPUT: > 100 µM

INPUT: Here is the next compound: `O=C(C(=C(I)I)c1ccccc1)c1ccccc1`
OUTPUT: > 100 µM

INPUT: Here is the next compound: CC1c2[nH]c3ccccc3c2CCN1O (stereo not given)
OUTPUT: > 100 µM

---

System: SF-539 CNS
Assay: NCI tumour cell line growth inhibition, 48 h
Can you tell me TGI for the items I'm about to list?
Just the number please, in µM, no unit attached.

INPUT: Using the record for `COc1ccc(S(=O)(=O)N(C(C)=O)c2ccccc2/C=C/c2cc[n+]([O-])cc2)cc1` , report its TGI.
OUTPUT: 2.45

INPUT: Here is the next compound: `O=C[C@@H](CO)O[C@H](C=O)n1cnc2c(=O)[nH]cnc21`
OUTPUT: 2230

INPUT: Here is the next compound: `O=C(C(=C(I)I)c1ccccc1)c1ccccc1`
OUTPUT: 52.6

INPUT: Here is the next compound: COc1ccc(C2C=C(c3ccc(C)cc3)N(c3ccc(OC)cc3[N+](=O)[O-])C3C(=O)OC(=O)C23)c(OC)c1 (stereo not given)
OUTPUT: 53.2

INPUT: Here is the next compound: O=P(O)(O)OCC1OC(n2cnc3c(NCc4ccccc4)ncnc32)C(O)C1O (stereo not given)
OUTPUT: 4.73

INPUT: Here is the next compound: `CN1CCN(CCCOc2cc(O)c3c(=O)cc(-c4ccccc4)oc3c2)CC1`
OUTPUT: 33.1

INPUT: Here is the next compound: `NC(=O)c1ccc[n+](C2=C([O-])c3ccccc3C(=O)/C2=N\S(=O)(=O)c2ccccc2)c1`
OUTPUT: 32.2

---

Test system: PC-3 prostate
Experiment: NCI tumour cell line growth inhibition, 48 h; in the data active means GI50 below about 0.43 µM; inactive means the rest
// classify into active, inactive

INPUT: What did the test return for `COc1cc(CNc2oc(-c3ccccc3)c(-c3ccccc3)c2C#N)cc(CN2CCN(C)CC2)c1O` ?
OUTPUT: inactive

INPUT: Here is the next compound: `CS(=O)(=O)N(c1cc(-c2ccc3ncnc(Nc4ccc(F)c(Cl)c4)c3c2)cnc1Cl)S(C)(=O)=O`
OUTPUT: inactive

INPUT: Here is the next compound: `CC[C@H](C)[C@H](NC(=O)c1cccn1C)C(=O)N(C)[C@H](C[C@@H](OC(C)=O)c1nc(C(=O)N[C@@H](Cc2ccccc2)C[C@H](C)C(=O)OC)cs1)C(C)C`
OUTPUT: active

INPUT: Here is the next compound: `Cc1cccc2c1[nH]c(=O)c1c3ccccc3cn21`
OUTPUT: inactive

---

Tested on: SK-MEL-2 melanoma
Experiment: NCI tumour cell line growth inhibition, 48 h
Can you tell me TGI for the items I'm about to list?

INPUT: Using the record for C=C1C(OC(C)=O)CC(OC(C)=O)C2(C)C(OC(C)=O)C(OC(C)=O)C3=C(C)C(OC(=O)/C=C/c4ccccc4)CC(C(OC(C)=O)C12)C3(C)C (stereo unspecified) , report its TGI.
OUTPUT: > 100 µM

INPUT: Here is the next compound: `O=C([O-])CC(=O)[O-].[NH-][C@@H]1CCCC[C@H]1[NH-].[Pt+4]`
OUTPUT: > 100 µM

INPUT: Here is the next compound: `COc1cc(C(=O)c2cocc2C(=O)c2ccc3c(c2)OCO3)cc(OC)c1OC`
OUTPUT: > 41.7 µM

INPUT: Here is the next compound: `COc1ccc(-c2cc(=O)c3c(O)c(OC)c(OC)c(OC)c3o2)cc1`
OUTPUT: > 81.3 µM

INPUT: Here is the next compound: `O=c1c2cc([N+](=O)[O-])ccc2oc2nc3n(c(=O)c12)CCCS3`
OUTPUT: > 100 µM

INPUT: Here is the next compound: O=C1c2cc3c(cc2CC12Cc1ccc4c(c1C2=O)CCC4)CCC3 (stereo unspecified)
OUTPUT: > 100 µM

---

Test system: MALME-3M melanoma
Assay: NCI tumour cell line growth inhibition, 48 h
Measured attribute: TGI (µM)
Just the number please, in µM, no unit attached.

INPUT: Using the record for `N#Cc1cc(S(=O)(=O)Nc2nc3ccccc3o2)c(SCc2ccccc2)cc1Cl` , report its TGI.
OUTPUT: 69.9

INPUT: Here is the next compound: `CC(C)(C)c1ccnc(N=C2N=C(Nc3cc(C(C)(C)C)ccn3)c3ccccc32)c1`
OUTPUT: 63.7

INPUT: Here is the next compound: `C[As+](C)(c1ccc(Br)c([N+](=O)[O-])c1)c1ccc(Br)c([N+](=O)[O-])c1.O=[N+]([O-])O`
OUTPUT: 34.1

INPUT: Here is the next compound: `COc1cc(C(=O)c2cocc2C(=O)c2ccc3c(c2)OCO3)cc(OC)c1OC`
OUTPUT: 29.1

INPUT: Here is the next compound: `O=[N+]([O-])c1ccc(-c2csc(=[N+]3CCCCC3)s2)cc1`
OUTPUT: 32.1

INPUT: Here is the next compound: `C1=CCCC=CCC1.C[PH+](C)C.C[PH+](C)C.C[PH+](C)C.[Cl-].[Ir]`
OUTPUT: 61.5

---

System: SK-MEL-2 melanoma
Experiment: NCI tumour cell line growth inhibition, 48 h
Can you tell me TGI for the items I'm about to list?

INPUT: Please provide the recorded TGI for `CC[C@H](C)[C@H](NC(=O)c1cccn1C)C(=O)N(C)[C@H](C[C@@H](OC(C)=O)c1nc(C(=O)N[C@@H](Cc2ccccc2)C[C@H](C)C(=O)OC)cs1)C(C)C` , tested on SK-MEL-2 melanoma.
OUTPUT: > 33.3 µM

INPUT: Here is the next molecule: `CCOC(=O)c1c(-c2ccccc2)c(OC)cn1C`
OUTPUT: > 10 µM

INPUT: Here is the next molecule: `NC(=O)C1CCN(Cc2c(Cl)c(Cl)c(CN3CCC(C(N)=O)CC3)c(Cl)c2Cl)CC1`
OUTPUT: > 100 µM

---

System: UACC-62 melanoma
Test: NCI tumour cell line growth inhibition, 48 h
Can you tell me TGI for the items I'm about to list?

INPUT: Using the record for NC(Cc1ccccc1)c1nccs1 (configuration not stated) , report its TGI.
OUTPUT: > 100 µM

INPUT: Here is the next molecule: `O=c1c2c3c(sc2nc2n1N=C(c1ccc(Br)cc1)CS2)CCCC3`
OUTPUT: > 100 µM

INPUT: Here is the next molecule: `c1ccc2c(c1)cc1ccc3cccc4ccc2c1c34`
OUTPUT: > 100 µM

INPUT: Here is the next molecule: `NC(=O)NN=C1Cc2ccccc2C1`
OUTPUT: > 100 µM

INPUT: Here is the next molecule: `NC(=O)C1CCN(Cc2c(Cl)c(Cl)c(CN3CCC(C(N)=O)CC3)c(Cl)c2Cl)CC1`
OUTPUT: > 100 µM

INPUT: Here is the next molecule: `COc1cc(C(=O)c2cocc2C(=O)c2ccc3c(c2)OCO3)cc(OC)c1OC`
OUTPUT: > 47.3 µM

INPUT: Here is the next molecule: CCCn1cc2c3c(cccc31)C1C=C(C)CN(C)C1C2 (configuration not stated)
OUTPUT: 55.7 µM

---

System: SF-268 CNS
Assay: NCI tumour cell line growth inhibition, 48 h
Measured attribute: TGI

INPUT: Using the record for CC/C=N\N1C(N)=C(C#N)C(C#N)(C#N)C1CC (stereo unspecified) , report its TGI.
OUTPUT: > 100 µM

INPUT: Here is the next compound: `CNC(=S)N1CCN(C(C)=O)C1=S`
OUTPUT: > 100 µM

INPUT: Here is the next compound: O=C1CC[C@@]23CC(=O)O[C@@H]2CCCC3C1 (stereo partly specified)
OUTPUT: > 100 µM

INPUT: Here is the next compound: `Cc1cc(S(=O)(=O)N=C2Nc3cccc4cccc(c34)N2)c(S)cc1Cl`
OUTPUT: > 100 µM

INPUT: Here is the next compound: C=C1C(=O)O[C@H]2C[C@@H]1C(=O)CC(C)CCCC(C)=CCC[C@@]2(C)O (stereo partly specified)
OUTPUT: > 25 µM

INPUT: Here is the next compound: `CS(=O)(=O)Nc1ccc2ccccc2c1`
OUTPUT: > 100 µM

---

Tested on: HOP-92 NSCLC
Experiment: NCI tumour cell line growth inhibition, 48 h
Can you tell me TGI for the items I'm about to list?

INPUT: Using the record for Cc1cccc2c1CC(Cc1ccccc1C(=O)O)C2=O (stereo unspecified) , report its TGI.
OUTPUT: > 100 µM

INPUT: Here is the next molecule: `CC1=C(C)SC(=C2Sc3c(n(C)c(=O)n(C)c3=O)S2)S1`
OUTPUT: > 100 µM

INPUT: Here is the next molecule: `O=C(c1ccc([N+](=O)[O-])cc1)N1CCCC1`
OUTPUT: > 100 µM

INPUT: Here is the next molecule: `CC(=O)[O-].N.N.N.N.[Co+3].[O-][Cl+3]([O-])([O-])[O-].[OH3+]`
OUTPUT: > 100 µM

INPUT: Here is the next molecule: `O=c1/c(=N\Nc2ccccc2)c2cccc3ccc4cccc1c4c32`
OUTPUT: > 100 µM

INPUT: Here is the next molecule: `CC(=O)Oc1ccc2c(c1)C(=O)c1nc(C)c(C)nc1C2=O`
OUTPUT: > 100 µM
